- method_notes: clinical
- test_conditions: human, in vivo, 250 mg, AUCtau (AUC0-8)
result_type: AUC(0-t) (ng·h/mL)
# value in ng·h/mL; strip the unit string

Asked: Quick one: AUC(0-t) for O=C1CC[C@H](N2Cc3cc(N4CCN(CC5CCN(c6ccc([C@@H]7c8ccc(O)cc8CC[C@@H]7c7ccccc7)cc6)CC5)CC4)ccc3C2=O)C(=O)N1 [Compound A] ?
Given back: 2920

Asked: What would you report for O=C1CC[C@@H](N2Cc3cc(N4CCN(CC5CCN(c6ccc([C@@H]7c8ccc(O)cc8CC[C@@H]7c7ccccc7)cc6)CC5)CC4)ccc3C2=O)C(=O)N1 [Compound B] ?
Given back: 179
